# measurement-description: drug combination growth inhibition, ovarian cancer – cell-based, oncology-focused library, rucaparib conditional, profiling panel (AID 1508598)
# condition-label: patient-derived ovarian cancer cells, CellTiter-Glo viability, 144 h; at 0.0781 µM; OCI-C5x cells; without rucaparib
Activity calls are given as the source filed them.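 Rule for the calls: active = normalized viability below 100% at a tested concentration; inactive = the rest.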
Possible outcomes: T for active, F for inactive

[
  {
    "smiles-repr": "Cc1csc(-c2nnc(Nc3ccc(Oc4ncccc4-c4ccnc(N)n4)cc3)c3ccccc23)c1",
    "label-class": "T"
  },
  {
    "smiles-repr": "COC(=O)Nc1ccc(-c2nc(N3CCOCC3)c3cnn(C4CCN(C(=O)OC)CC4)c3n2)cc1",
    "label-class": "F"
  },
  {
    "smiles-repr": "CN(NC(=O)CC(=O)NN(C)C(=S)c1ccccc1)C(=S)c1ccccc1",
    "label-class": "F"
  },
  {
    "smiles-repr": "CS(=O)(=O)N1CCc2c(-c3cnc(N)nc3)nc(N3CCOCC3)nc21",
    "label-class": "F"
  },
  {
    "smiles-repr": "OCCn1cc(-c2cnc3nnn(Cc4ccc5ncccc5c4)c3n2)cn1",
    "label-class": "F"
  },
  {
    "smiles-repr": "CC(C)(C)c1cnc(CSc2cnc(NC(=O)C3CCNCC3)s2)o1",
    "label-class": "T"
  },
  {
    "smiles-repr": "CCNC(=O)c1noc(-c2cc(C(C)C)c(O)cc2O)c1-c1ccc(CN2CCOCC2)cc1",
    "label-class": "T"
  },
  {
    "smiles-repr": "Cc1cc(CS(=O)(=O)c2ccccc2)cc(OCc2ccc(CN3CCC[C@@H]3CO)cc2)c1",
    "label-class": "F"
  },
  {
    "smiles-repr": "COc1cc2nccc(Oc3ccc(NC(=O)C4(C(=O)Nc5ccc(F)cc5)CC4)cc3)c2cc1OC",
    "label-class": "F"
  }
]

---

cell count by entry:
# measurement-description: viability loss with induced miR-34 in A549 – imaging, A549 dox-inducible miR-34, nuclei and caspase counts, primary screen (AID 1347080)
# condition-label: A549 miR-34 inducible, Hoechst nuclei count, 48 h; measured here: total cells with miR-34 induction; stronger effect = lower value

[
  {
    "molecule": "CCCCC[C@H](O)/C=C/[C@@H]1[C@@H](C/C=C\\CCCC(=O)N(CC)CC)[C@@H](O)C[C@H]1O",
    "cell count": 5500
  },
  {
    "molecule": "Cc1cnc(-c2cc(N3CCN(C(=O)CCS(C)(=O)=O)CC3)ncc2Cl)c(C)c1",
    "cell count": 8550
  },
  {
    "molecule": "CCOc1ccccc1O[C@H](c1ccccc1)[C@H]1CNCCO1 (racemic)",
    "cell count": 7740
  },
  {
    "molecule": "CCCCC[C@H](O)/C=C/[C@@H]1[C@H]2C/C=C\\CCCC(=O)O[C@@H]1C[C@@H]2O",
    "cell count": 5380
  },
  {
    "molecule": "COCCNC(=O)COc1ccc(OCCNC[C@@H](O)COc2ccccc2)cc1",
    "cell count": 8400
  },
  {
    "molecule": "CCCNC(=O)[C@H]1O[C@@H]1C(=O)N[C@H](C(=O)N1CCC[C@H]1C(=O)OC)C(C)CC (stereo partly specified)",
    "cell count": 4190
  },
  {
    "molecule": "CCCCOc1c(C(=O)c2c(F)cc(C)cc2F)cnc2n[nH]cc12",
    "cell count": 1950
  },
  {
    "molecule": "OCC(O)[C@@H](O)CO (stereo partly specified)",
    "cell count": 8910
  },
  {
    "molecule": "O=C(c1cccs1)c1ccc(OCCCO)c(Cl)c1Cl",
    "cell count": 5620
  },
  {
    "molecule": "O=C(NCCCN1CCC2(CC1)OCc1ccccc12)[C@H]1CCCN1Cc1ccccc1",
    "cell count": 7790
  },
  {
    "molecule": "c1ncc(CC2CCNCC2)[nH]1",
    "cell count": 8900
  },
  {
    "molecule": "CN",
    "cell count": 4700
  },
  {
    "molecule": "Nc1nc(F)nc2c1ncn2C1OC(COP(=O)(O)O)C(O)C1O (stereo unspecified)",
    "cell count": 1120
  },
  {
    "molecule": "N[C@@H](C(=O)O)c1ccc(O)c(C(=O)O)c1",
    "cell count": 8680
  },
  {
    "molecule": "Clc1ccccc1CNCC1CCC(CNCc2ccccc2Cl)CC1 (stereo unspecified)",
    "cell count": 7550
  },
  {
    "molecule": "C[C@@H](O)[C@@H]1NC(=O)[C@H](CCCCN)NC(=O)[C@@H](Cc2c[nH]c3ccccc23)NC(=O)[C@H](Cc2ccccc2)NC(=O)[C@@H](NC(=O)[C@H](N)Cc2ccccc2)CSSC[C@@H](C(=O)N[C@H](CO)[C@@H](C)O)NC1=O",
    "cell count": 9290
  },
  {
    "molecule": "CCCCCCCCCCCCCCCCCC(=O)N[C@H]1CCOC1=O",
    "cell count": 6650
  },
  {
    "molecule": "CCCCC[C@H](O)/C=C/[C@H]1[C@H](O)CC(=O)[C@H]1C/C=C\\CCCC(=O)O",
    "cell count": 5730
  },
  {
    "molecule": "Nc1nc(Nc2ccc(S(N)(=O)=O)cc2)nn1C(=O)c1c(F)cccc1F",
    "cell count": 1400
  },
  {
    "molecule": "CC(C)(C)c1cc(NC(=O)Nc2ccc(-c3cn4c(n3)sc3cc(OCCN5CCOCC5)ccc34)cc2)no1",
    "cell count": 6520
  },
  {
    "molecule": "N[C@@H](Cn1ccc(=O)n(Cc2ccccc2C(=O)O)c1=O)C(=O)O",
    "cell count": 8660
  }
]
